Hey, just so you know, these numbers are from patent US20260191907A1.

# pKd per entry
# assay system: T1, Recombinant FGFR4 (G&P Biosciences) (human, UniProt P22455 22-369)
# T1 construct: Bought protein; the SPR method says only 'Recombinant; also called rFGFR4; extracellular FGFR4
# T1 sequence: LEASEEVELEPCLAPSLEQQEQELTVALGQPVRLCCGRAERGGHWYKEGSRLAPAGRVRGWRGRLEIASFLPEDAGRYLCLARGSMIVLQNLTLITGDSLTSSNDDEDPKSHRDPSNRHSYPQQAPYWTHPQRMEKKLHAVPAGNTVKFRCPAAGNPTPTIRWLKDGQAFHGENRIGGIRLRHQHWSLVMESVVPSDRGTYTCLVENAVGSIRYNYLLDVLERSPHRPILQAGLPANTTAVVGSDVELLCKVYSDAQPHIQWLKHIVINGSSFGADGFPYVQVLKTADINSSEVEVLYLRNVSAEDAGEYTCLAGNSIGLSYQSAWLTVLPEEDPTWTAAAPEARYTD
# procedure summary: SPR (BIAcore T200), single cycle kinetics, FGFR4 amine-immobilised, nanobody as analyte, heterogeneous ligand model, component 2 (KD2)
Quick note: pKd means taking -log10 of the concentration in moles per liter.

In the examples that follow, each entry is paired with its recorded pKd.
{"binder": "F8 nanobody (anti-FGFR4 sdAb, Gimli library) (VHH, Recombinant nanobody of about 17 kDa; also called F8 sdAb; not shown: C-terminal Myc/6xHis-tag and an additional cysteine) VHH: EVQLVESGGGLVQPGGSLRLSCAASGTGYALDDMGWVRQAPGKGLEWVSAISDDESMADYYADSVKGRFTISRDNSKNTVYLQMNSLRAEDTAVYYCASYKEYKYQSGHHYFAYRGQGTLVTVSS", "pKd": 8.38}
{"binder": "A8 nanobody (anti-FGFR4 sdAb, NaLi-H1 library) (VHH, also called A8 sdAb; not shown: C-terminal Myc/6xHis-tag and an additional cysteine) VHH: EVQLQASGGGFVQPGGSLRLSCAASGRTYSRDTMGWFRQAPGKEREFVSAISSRHSHTTYYADSVKGRFTISRDNSKNTVYLQMNSLRAEDTATYYCAEWDVFDMHYALPPMWYWGQGTQVTVSS", "pKd": 7.43}
{"binder": "B5 nanobody (anti-FGFR4 sdAb, NaLi-H1 library) (VHH, Recombinant nanobody of about 17 kDa; also called B5 sdAb; not shown: C-terminal Myc/6xHis-tag and an additional cysteine) VHH: EVQLQASGGGFVQPGGSLRLSCAASGRTSWLTTMGWFRQAPGKEREFVSAISSFSSKQGYYADSVKGRFTISRDNSKNTVYLQMNSLRAEDTATYYCAYASYPRHQGNGRWKDFVEYWGQGTQVTVSS", "pKd": 12.67}

Could you now consider this next binder?
Bench note: what pKd did B1 nanobody (anti-FGFR4 sdAb, NaLi-H1 library) (VHH, also called B1 sdAb; not shown: C-terminal Myc/6xHis-tag and an additional cysteine) VHH: EVQLQASGGGFVQPGGSLRLSCAASGYTSRSSAMGWFRQAPGKEREFVSAISDLTGYPYYYADSVKGRFTISRDNSKNTVYLQMNSLRAEDTATYYCAAYQDDKWTYGSQHGKYWGQGTQVTVSS show?
8.34
